Biological target: AMP-activated protein kinase, AMPK (Homo sapiens) (UniProt P54646+O43741+P54619+Q9UGJ0+Q9Y478+Q13131+Q9UGI9)
Experiment: AMP-dependent Kinase enzyme assay. An in vitro enzyme assay that detects ADP turnover that is directly proportional to AMPK activity. This uses naive AMPK that is activated during the assay with MK-8722
Format: functional
Design: scale not given: direction of the effect not stated beside the values
Conditions: 30 µM
Assign Percent Effect to each entry below.
Numbers only, in %.

Please state Percent Effect for every compound in the list that follows.
1. CCOC(=O)N(C)CC(=O)NCCc1coc(-c2ccc(C)cc2)n1
2. CCc1noc(C(C)N2CCCN(Cc3noc(C4CC4)n3)CC2)n1 (configuration not stated)
3. CCCn1cc(NC(=O)Nc2ccc(F)c(C(=O)NC)c2)cn1
4. Cc1ccccc1CCC(=O)N1CCc2ncnc(NCCO)c2CC1
5. CCCn1cc(NC(=O)c2cccc(CN3CC=CC3)c2)nn1
6. COc1ccc(Cl)cc1C(C(=O)O)N1CCSCC1 (configuration not stated)

A)
1. -1.7
2. 0.0834
3. 8.23
4. 0.622
5. 3.97
6. 3.31

Please state Percent Effect for every compound in the list that follows.
1. COc1ccc2c(c1)CCCC2CC(=O)O (configuration not stated)
2. O=C(c1cc(C2CC2)nc2onc(-c3ccccc3)c12)N1CCOCC1
3. CCc1noc(C(C)N2CCN(Cc3noc(C4CC4)n3)CC2)n1 (configuration not stated)
4. CCc1ccsc1C(=O)NC(C#N)CC(C)C (configuration not stated)
5. CCCS(=O)(=O)CC(=O)Nc1ccsc1
6. NS(=O)(=O)c1ccc(N2CCN(CCCc3cn[nH]c3)CC2)cc1

A)
1: -8.39; 2: 4.72; 3: 0.498; 4: -7.05; 5: -1.52; 6: -5.73

----------
Assign Percent Effect to each entry below.
Biological target: Protein translocase subunit SecA (Escherichia coli (strain K12)) (UniProt P10408)
Sequence (P10408 whole entry): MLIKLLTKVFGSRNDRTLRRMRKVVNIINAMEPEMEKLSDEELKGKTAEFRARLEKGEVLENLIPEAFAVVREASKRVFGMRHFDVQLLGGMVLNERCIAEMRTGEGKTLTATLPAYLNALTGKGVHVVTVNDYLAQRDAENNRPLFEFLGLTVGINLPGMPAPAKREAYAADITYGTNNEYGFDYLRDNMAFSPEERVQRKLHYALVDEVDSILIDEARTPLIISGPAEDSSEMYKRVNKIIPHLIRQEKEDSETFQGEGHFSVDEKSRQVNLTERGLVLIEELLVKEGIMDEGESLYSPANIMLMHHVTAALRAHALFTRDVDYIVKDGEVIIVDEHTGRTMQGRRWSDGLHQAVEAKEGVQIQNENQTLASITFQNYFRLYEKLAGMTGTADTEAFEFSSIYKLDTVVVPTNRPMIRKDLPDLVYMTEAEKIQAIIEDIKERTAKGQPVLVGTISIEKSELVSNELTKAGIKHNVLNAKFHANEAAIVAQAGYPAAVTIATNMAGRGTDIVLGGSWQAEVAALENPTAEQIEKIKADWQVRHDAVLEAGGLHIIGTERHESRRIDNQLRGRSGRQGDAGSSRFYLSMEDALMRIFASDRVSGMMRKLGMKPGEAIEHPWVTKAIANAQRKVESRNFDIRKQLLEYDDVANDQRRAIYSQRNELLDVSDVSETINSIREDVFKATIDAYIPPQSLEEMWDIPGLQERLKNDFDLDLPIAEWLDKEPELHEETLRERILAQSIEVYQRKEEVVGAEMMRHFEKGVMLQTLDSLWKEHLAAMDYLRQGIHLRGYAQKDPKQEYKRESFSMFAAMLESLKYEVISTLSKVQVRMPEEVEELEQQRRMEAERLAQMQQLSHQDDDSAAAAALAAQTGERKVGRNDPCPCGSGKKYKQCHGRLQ
Experiment: Assay to Identify E. coli SecA ATPase Inhibitors
Type: functional
Set-up: scale not given: direction of the effect not stated beside the values
Conditions: 30 µM
Entries with a potency or affinity are not part of this list.
One number for each entry, in %.

Please state Percent Effect for every compound in the list that follows.
1. Cc1ccc(C(=O)N2CCC3(CC2)CC(N2CCOCC2)C3)cc1
2. CCOc1ncccc1NC(=O)NC1CCCN(c2ncccn2)C1 (configuration not stated)
3. O=C(NCc1cc[nH]n1)NCC(O)c1ccc(F)cc1F (configuration not stated)
4. CC(C)(C)C(O)CN1CCN(C(=O)c2cccc3ncccc23)CC1 (configuration not stated)
5. COc1ccc(C(N)c2cccc(S(C)(=O)=O)c2)cc1 (configuration not stated)

A)
[-2.43, 0.363, -0.475, -3.23, -6.1]

Please state Percent Effect for every compound in the list that follows.
1. O=C(NCCc1cccnc1)N1CCCC1c1ccsc1 (configuration not stated)
2. CN1CCCn2c(nc(CNC(=O)c3ccsc3)cc2=O)C1
3. CC(C)N1CCCC2(CCN(C(=O)CCCn3cncn3)C2)C1=O (configuration not stated)
4. COc1ccc(CN2CCC[C@@H]3CN(C(=O)c4ccco4)C[C@@H]32)cc1

A)
-6.89
-0.659
-5.4
-4.96

Please state Percent Effect for every compound in the list that follows.
1. CCn1ccnc1CN(C)CC1CCCN1c1cccnn1 (configuration not stated)
2. CCC1CN(C(=O)c2ccccc2N2CCCC2)CCN1C(C)C (configuration not stated)
3. CC(C)c1cc(N2CCN(c3ccc(O)cc3)CC2)n2nccc2n1

A)
-2.58
-7.26
-0.0494
